Assignment: determine reported Total Cell Count for the given compounds.
Tested on: U2OS
ASSAY_DETAILS: Multiplex assay against U2OS
Type: toxicity, cell-based
ASSAY_CONDITIONS: human, 48 h, 10 µM, compound concentration 10 uM, replicate 2
Give a plain numeric answer without units written out.

Note to self: Total Cell Count recorded for `CCOc1cc(C(=O)N2CCC(N3CCN(C)CC3)CC2)ccc1Nc1ncc2c(n1)N(C1CCCC1)c1ccccc1C(=O)N2C` was 103

Field Total Cell Count (entry `C=C1/C(=C\C=C2/CCC[C@]3(C)[C@@H]([C@H](C)/C=C/[C@H](C)C(C)C)CC[C@@H]23)C[C@@H](O)C[C@@H]1O` ) reads 127

Input `COCC(=O)NC/C=C/c1ccc2ncnc(Nc3ccc(Oc4ccc(C)nc4)c(C)c3)c2c1` . Output Total Cell Count: 71

The compound listed as `O=C1N/C(=N/c2ccccc2F)S/C1=C\c1ccc(C(=O)O)cc1` shows Total Cell Count equal to 105

The measured Total Cell Count associated with `CNc1cc(Oc2cc(C(=O)Nc3cc(N4CCN(C)CC4)cc(C(F)(F)F)c3)ccc2C)ncn1` reads 85

Consider CCOC(=O)c1c(C)[nH]c2ccc3c(c12)CN1CCc2cc(OC)ccc2C1O3 (configuration not stated) . Its measured Total Cell Count is 121

Record summary for `CCCn1c(=O)c2[nH]c(-c3cnn(Cc4cccc(C(F)(F)F)c4)c3)nc2n(CC)c1=O` : reported Total Cell Count = 214

Measured Total Cell Count, `Cl.O=c1c2cccn2c2ccccc2n1CCCN1CCC(c2ccc(Cl)cc2)CC1` : 74

The recorded Total Cell Count for entry CN(C)C(=O)C(CCN1CCC(O)(c2ccc(Cl)cc2)CC1)(c1ccccc1)c1ccccc1.Cl [LOPERAMIDE HYDROCHLORIDE] equals 92

Note to self: Total Cell Count recorded for `CCn1c(=O)c(-c2ccc(-c3cncs3)cc2Cl)cc2cnc(Nc3ccc(N4CCN(C)CC4)cc3)nc21` was 125

The compound listed as `S=C(NCCCc1c[nH]cn1)NCCCN(Cc1ccc(Cl)c(Cl)c1)c1ccc(Br)cn1` shows Total Cell Count equal to 43

Recorded Total Cell Count (compound `Cl.Oc1ccc2c3c1O[C@H]1c4[nH]c5c(c4C[C@@]4(O)[C@@H](C2)N(CC2CC2)CC[C@]314)C[C@@]1(O)[C@H]2Cc3ccc(O)c4c3[C@@]1(CCN2CC1CC1)[C@H]5O4` ): 129

The recorded Total Cell Count for entry `Cl.O=C(c1ccc(Nc2nccc(-c3cc4ccccc4s3)n2)cc1)N1CCC(N2CCCC2)CC1` equals 77

Lab note: measured Total Cell Count of `O=C(Cc1ccc(-c2ccc(OCCN3CCOCC3)cc2)cn1)NCc1ccccc1` was 85

The compound listed as `CN1CCN(C(=O)C(C)(C)c2ccc(C(=O)Nc3cn4cc(-c5ccncc5)ccc4n3)cc2)CC1` shows Total Cell Count equal to 57

Per the record, `Cc1ccc(C(=O)Nc2cccc(C(F)(F)F)c2)cc1Nc1nc(-c2cccnc2)nc2c1cnn2C` has Total Cell Count of 77

Measured Total Cell Count, `CCCS(=O)(=O)c1nc(NC2CC2)cc(-c2ccc3c(ccn3C3CC(C)(C)NC(C)(C)C3)c2)n1` : 131

----------
System: Fibroblast
ASSAY_DETAILS: Multiplex assay against human fibroblast
Type: toxicity, cell-based
ASSAY_CONDITIONS: 24 h, 10 µM, compound concentration 10 uM, replicate 1
REPORTED_ENDPOINT: Population Hoechst High Intensity Objects (%)
Return type: number; implicit unit %.

Just so you know, measured Population Hoechst High Intensity Objects (%) for `CCOc1cc(C(=O)N2CCC(N3CCN(C)CC3)CC2)ccc1Nc1ncc2c(n1)N(C1CCCC1)c1ccccc1C(=O)N2C` came out at 28

`CCN1CCN(Cc2ccc(Nc3ncc(F)c(-c4cc(F)c5nc(C)n(C(C)C)c5c4)n3)nc2)CC1.CS(=O)(=O)O` has a reported Population Hoechst High Intensity Objects (%) of 25

Lab note: C=CCn1c(=O)c2cnc(Nc3ccc(N4CCN(C)CC4)cc3)nc2n1-c1cccc(C(C)(C)O)n1 [ADAVOSERTIB] gave Population Hoechst High Intensity Objects (%) of 20

Entry CCOc1cc2ncc(C#N)c(Nc3ccc(OCc4ccccn4)c(Cl)c3)c2cc1NC(=O)/C=C/CN(C)C [NERATINIB] ; Population Hoechst High Intensity Objects (%) = 39

Entry under test: `O=C(Nc1cccnn1)N1CCC(=Cc2cccc(Oc3ccc(C(F)(F)F)cn3)c2)CC1` . Its Population Hoechst High Intensity Objects (%) was 18

Population Hoechst High Intensity Objects (%) reported for this molecule CCn1cc(-c2ccnc3[nH]c(-c4cccc(CN(C)C)c4)cc23)c(-c2ccc(NC(=O)N(C)C)cc2)n1 [GSK-1070916] : 50

The molecule identified as `O=C(Nc1ccc(-c2ccnc(Nc3ccc(N4CCOCC4)cc3)n2)cc1)[C@@H]1CCCN1` registered its Population Hoechst High Intensity Objects (%) at 12

The molecule CCOC(=O)c1c(C)[nH]c2ccc3c(c12)CN1CCc2cc(OC)ccc2C1O3 (stereo unspecified) showed Population Hoechst High Intensity Objects (%) equal to 20

The measured Population Hoechst High Intensity Objects (%) associated with CN1C2CCC1CC(OC(c1ccc(F)cc1)c1ccc(F)cc1)C2.Cl (stereo unspecified) reads 17

Given item CN(C)C(=O)C(CCN1CCC(O)(c2ccc(Cl)cc2)CC1)(c1ccccc1)c1ccccc1.Cl [LOPERAMIDE HYDROCHLORIDE] , the value recorded as its Population Hoechst High Intensity Objects (%) is 24

The recorded Population Hoechst High Intensity Objects (%) for entry `Cc1ccc2nc(NCCN)c3ncc(C)n3c2c1.O=C(O)C(F)(F)F.O=C(O)C(F)(F)F` equals 23

Population Hoechst High Intensity Objects (%) for `CNc1cc(Oc2cc(C(=O)Nc3cc(N4CCN(C)CC4)cc(C(F)(F)F)c3)ccc2C)ncn1` is 18

Recorded Population Hoechst High Intensity Objects (%) (molecule `CCCS(=O)(=O)c1nc(NC2CC2)cc(-c2ccc3c(ccn3C3CC(C)(C)NC(C)(C)C3)c2)n1` ): 19

Recorded result, CN1CCC(=C2c3ccccc3CC(=O)c3sccc32)CC1.O=C(O)/C=C/C(=O)O [KETOTIFEN FUMARATE] , Population Hoechst High Intensity Objects (%): 16

Looking up `Cl.Oc1ccc2c3c1O[C@H]1c4[nH]c5c(c4C[C@@]4(O)[C@@H](C2)N(CC2CC2)CC[C@]314)C[C@@]1(O)[C@H]2Cc3ccc(O)c4c3[C@@]1(CCN2CC1CC1)[C@H]5O4` , I found its Population Hoechst High Intensity Objects (%) recorded as 15

Form: molecule = O=C(Cc1ccc(-c2ccc(OCCN3CCOCC3)cc2)cn1)NCc1ccccc1 [TIRBANIBULIN] ; Population Hoechst High Intensity Objects (%) = 13

----------
Test system: HEK-293T
ASSAY_DETAILS: Multiplex assay against HEK293T
Format: toxicity, cell-based
ASSAY_CONDITIONS: human, 12 h, 1 µM, compound concentration 1 uM, replicate 1
Please provide measured Population Apoptotic (%) for the entries that follow.
Give the value, in units of %, as a plain number.

Consider CN1C2CCC1CC(OC(c1ccc(F)cc1)c1ccc(F)cc1)C2.Cl (stereo not drawn) . Its measured Population Apoptotic (%) is 50

// Population Apoptotic (%) value for `CNC(=O)c1ccc(Nc2nc(OC3CCCC3)c3c(-c4ccc5nc(C)oc5c4)c[nH]c3n2)c(OC)c1` : 36

Sure, the documented Population Apoptotic (%) for Cn1nc(C(F)(F)F)cc1-c1cnc(N2CCc3cc(S(=O)(=O)Nc4c(F)cc(Cl)cc4F)cc(N4CCCC4=O)c32)nc1 [TP-020] is 25

Looking up CCn1cc(-c2ccnc3[nH]c(-c4cccc(CN(C)C)c4)cc23)c(-c2ccc(NC(=O)N(C)C)cc2)n1 [GSK-1070916] , I found its Population Apoptotic (%) recorded as 17

Reported Population Apoptotic (%) of CCN1CCN(c2ccc(Nc3cc(N(C)C(=O)Nc4c(Cl)c(OC)cc(OC)c4Cl)ncn3)cc2)CC1 [INFIGRATINIB] : 26

Lookup result for `CCn1c(=O)c(-c2ccc(-c3cncs3)cc2Cl)cc2cnc(Nc3ccc(N4CCN(C)CC4)cc3)nc21` ; measured Population Apoptotic (%): 34

Measured Population Apoptotic (%) of Cc1cn(-c2cc(NC(=O)c3ccc(C)c(Nc4nccc(-c5cccnc5)n4)c3)cc(C(F)(F)F)c2)cn1 [NILOTINIB] : 65

In plain terms, `COc1ccc(S(=O)(=O)N(CCO)c2ccccc2CN(C)C/C=C/c2ccc(Cl)cc2)cc1.O=P(O)(O)O` has a documented Population Apoptotic (%) of 42

Population Apoptotic (%) reported for this molecule `O=C(Nc1ccc(-c2ccnc(Nc3ccc(N4CCOCC4)cc3)n2)cc1)[C@@H]1CCCN1` : 46

Value of measured Population Apoptotic (%) for the entry `Cc1ccc(C(=O)Nc2cccc(C(F)(F)F)c2)cc1Nc1nc(-c2cccnc2)nc2c1cnn2C` : 63

Sample CCCS(=O)(=O)Nc1ccc(F)c(C(=O)c2c[nH]c3ncc(Cl)cc23)c1F [PLX-4720] ; Population Apoptotic (%) observed: 13

For CN1CCN(C(=O)C(C)(C)c2ccc(C(=O)Nc3cn4cc(-c5cc(C(C)(C)C)cc(C(C)(C)C)c5)ccc4n3)cc2)CC1 [T3-CLK-N] the molecule record lists Population Apoptotic (%) as 14

The recorded Population Apoptotic (%) for entry COc1cccc2cc(-c3nc([C@H]4CC[C@H](C(=O)O)CC4)n4ncnc(N)c34)[nH]c12 [OSI-027] equals 25

Input `S=C(NCCCc1c[nH]cn1)NCCCN(Cc1ccc(Cl)c(Cl)c1)c1ccc(Br)cn1` . Output Population Apoptotic (%): 47

Quick note, Population Apoptotic (%) for `COC(=N)c1nc2ccc3ncnc(Nc4ccc(OC)cc4F)c3c2s1` landed at 15

Recorded Population Apoptotic (%) (molecule `CCc1cccc(CC)c1NC(=O)c1nn(C)c2c1CCc1cnc(Nc3ccc(N4CCN(C)CC4)cc3OC)nc1-2` ): 27

// field: Population Apoptotic (%); key: `CCCS(=O)(=O)c1nc(NC2CC2)cc(-c2ccc3c(ccn3C3CC(C)(C)NC(C)(C)C3)c2)n1` ; value = 58

Entry O=C1NC(=O)C(c2cnc3ccccn23)=C1c1cn2c3c(cc(F)cc13)CN(C(=O)N1CCCCC1)CC2 [LY-2090314] — recorded Population Apoptotic (%) = 46

Entry under test: `Cl.O=c1c2cccn2c2ccccc2n1CCCN1CCC(c2ccc(Cl)cc2)CC1` . Its Population Apoptotic (%) was 57

Short answer for `CCc1cccc(CC)c1NC(=O)c1nn(C)c2c1CCc1cnc(Nc3ccc(C(=O)NC4CCN(C)CC4)cc3OC(F)(F)F)nc1-2` : Population Apoptotic (%) was 66

The recorded Population Apoptotic (%) for `CCOc1cc(C(=O)N2CCC(N3CCN(C)CC3)CC2)ccc1Nc1ncc2c(n1)N(C1CCCC1)c1ccccc1C(=O)N2C` is 61

So for C=CCn1c(=O)c2cnc(Nc3ccc(N4CCN(C)CC4)cc3)nc2n1-c1cccc(C(C)(C)O)n1 [ADAVOSERTIB] , the logged Population Apoptotic (%) turned out to be 16

Population Apoptotic (%) for `O=C(Nc1ccc(Cl)cc1)Nc1cccc(-c2cccc(N3CCCC3)n2)c1` is 51

response.value for `O=C(Nc1cccnn1)N1CCC(=Cc2cccc(Oc3ccc(C(F)(F)F)cn3)c2)CC1` (field: Population Apoptotic (%)) = 22

Lab book: Population Apoptotic (%) of CCOC(=O)c1c(C)[nH]c2ccc3c(c12)CN1CCc2cc(OC)ccc2C1O3 (stereo not drawn) noted as 61

Entry COc1cc2ncnc(Nc3ccc(F)c(Cl)c3)c2cc1NC(=O)/C=C/CN1CCCCC1 [DACOMITINIB ANHYDROUS] — recorded Population Apoptotic (%) = 34

The recorded Population Apoptotic (%) for entry `NC(=O)c1cccc(-c2cc(Nc3ccc(OC(F)(F)F)cc3)ncn2)c1` equals 23

Per the record, `Cc1ccc2nc(NCCN)c3ncc(C)n3c2c1.O=C(O)C(F)(F)F.O=C(O)C(F)(F)F` has Population Apoptotic (%) of 29

Just so you know, measured Population Apoptotic (%) for C=C1/C(=C\C=C2/CCC[C@]3(C)[C@@H]([C@H](C)/C=C/[C@H](C)C(C)C)CC[C@@H]23)C[C@@H](O)C[C@@H]1O [DOXERCALCIFEROL] came out at 53

Population Apoptotic (%) reported for this molecule CCCn1c(=O)c2[nH]c(-c3cnn(Cc4cccc(C(F)(F)F)c4)c3)nc2n(CC)c1=O [GS 6201] : 48

The molecule `COc1cc(N2CCN(C)CC2)ccc1Nc1ncc2c(n1)N(C)c1ccccc1C(=O)N2C` showed Population Apoptotic (%) equal to 46

Just so you know, measured Population Apoptotic (%) for `CCNc1cc(N[C@H]2CC[C@H](O)CC2)nc(Nc2ccc3c(ccn3Cc3ccccc3)c2)n1` came out at 23

The reported Population Apoptotic (%) of the molecule `Cl.O=C(c1ccc(Nc2nccc(-c3cc4ccccc4s3)n2)cc1)N1CCC(N2CCCC2)CC1` was 28
